assay: Clearance in Sprague-Dawley rat at 1 mg/kg, iv measured during 2 mins to 24 hrs period post dose by LC-MS/MS method; assay type: ADME, organism-based; settings: in vivo
MEASURED ATTRIBUTE: clearance
Answer with the figure and its unit, nothing else.

# SMILES DATA, clearance
data = [
    ("Cc1ccc(CN2CCOCC2)cc1NC(=O)c1ccc(Nc2ncc(C(F)(F)F)c(-c3ccccn3)n2)cc1", "20.1 mL/min/kg"),
]

**Q:** Provide measured clearance value, entry: `Cc1ccc(CN2CCOCC2)cc1NC(=O)c1ccc(Nc2ncc(C(F)(F)F)c(-c3ccc(OC(F)(F)F)cc3)n2)cc1`
**A:** 7.82 mL/min/kg

**Q:** Provide measured clearance value, entry: `Cc1ccc(CN2CCOCC2)cc1NC(=O)c1ccc(Nc2ncc(C(F)(F)F)c(-c3ccccc3)n2)cc1`
**A:** 20.9 mL/min/kg

**Q:** Provide measured clearance value, entry: `Cc1ccc(CN2CCN(C)CC2)cc1NC(=O)c1ccc(Nc2ncc(C(F)(F)F)c(-c3ccc(OC(F)(F)F)cc3)n2)cc1`
**A:** 11.6 mL/min/kg

====

assay: Cmax in Sprague-Dawley rat at 1 mg/kg, iv measured during 2 mins to 24 hrs period post dose by LC-MS/MS method; format: ADME, organism-based; set-up: dose 1 mg/kg, route intravenous; details: in vivo
MEASURED ATTRIBUTE: Cmax (ng/mL)
Report only the number, with the unit ng/mL understood.

**Q:** Provide measured Cmax value, entry: `Cc1ccc(CN2CCOCC2)cc1NC(=O)c1ccc(Nc2ncc(C(F)(F)F)c(-c3ccccc3)n2)cc1`
**A:** 1190

====

assay: Half life in Sprague-Dawley rat at 1 mg/kg, iv measured during 2 mins to 24 hrs period post dose by LC/MS/MS method; assay type: ADME, organism-based; details: in vivo
MEASURED ATTRIBUTE: half-life (h)
Report only the number, with the unit h understood.

Solved cases below.
# SMILES DATA, half-life, h
rows = [
    ("Cc1ccc(CN2CCN(C)CC2)cc1NC(=O)c1ccc(Nc2ncc(C(F)(F)F)c(-c3ccc(OC(F)(F)F)cc3)n2)cc1", 9.25),
    ("Cc1ccc(CN2CCOCC2)cc1NC(=O)c1ccc(Nc2ncc(C(F)(F)F)c(-c3ccccc3)n2)cc1", 2.32),
    ("Cc1ccc(CN2CCOCC2)cc1NC(=O)c1ccc(Nc2ncc(C(F)(F)F)c(-c3ccc(OC(F)(F)F)cc3)n2)cc1", 8.63),
]

Please look at the following compound next.
**Q:** Provide measured half-life value, entry: `Cc1ccc(CN2CCOCC2)cc1NC(=O)c1ccc(Nc2ncc(C(F)(F)F)c(-c3ccccn3)n2)cc1`
**A:** 1.03

====

experiment: Cmax in Sprague-Dawley rat at 1 mg/kg, iv measured during 2 mins to 24 hrs period post dose by LC-MS/MS method; assay type: ADME, organism-based; parameters: dose 1 mg/kg, route intravenous; details: in vivo
MEASURED ATTRIBUTE: Cmax
Answer with the figure and its unit, nothing else.

**Q:** Provide measured Cmax value, entry: `Cc1ccc(CN2CCOCC2)cc1NC(=O)c1ccc(Nc2ncc(C(F)(F)F)c(-c3ccc(OC(F)(F)F)cc3)n2)cc1`
**A:** 2220 ng/mL

**Q:** Provide measured Cmax value, entry: `Cc1ccc(CN2CCOCC2)cc1NC(=O)c1ccc(Nc2ncc(C(F)(F)F)c(-c3ccccn3)n2)cc1`
**A:** 1420 ng/mL

**Q:** Provide measured Cmax value, entry: `Cc1ccc(CN2CCN(C)CC2)cc1NC(=O)c1ccc(Nc2ncc(C(F)(F)F)c(-c3ccc(OC(F)(F)F)cc3)n2)cc1`
**A:** 844 ng/mL
